Target: CDK2/Cyclin A (Homo sapiens)
Assay: Inhibition of CDK2/Cyclin A Retinoblastoma Kinase Activity
Type: biochemical
Conditions: 0.03 μM compound; Table 2
Response field label takes satisfied when CDK2 % Inhibition At 0.03 μM is strictly below 30% and not satisfied in all other cases.

chemical_structure=Cc1ccc(C)c(NC(=O)N2CCC(Nc3nc(N)c(C(=O)c4c(F)cccc4F)s3)CC2)c1 qualitative_label="not satisfied"
chemical_structure=COC(=O)c1cc(NC(=O)N2CCC(Nc3nc(N)c(C(=O)c4c(F)cccc4F)s3)CC2)cc(C(=O)OC)c1 qualitative_label=satisfied
chemical_structure=COc1ccc(OC)c(NC(=O)N2CCC(Nc3nc(N)c(C(=O)c4c(F)cccc4F)s3)CC2)c1 qualitative_label="not satisfied"
chemical_structure=Cc1cccc(NC(=O)N2CCC(Nc3nc(N)c(C(=O)c4c(F)cccc4F)s3)CC2)c1 qualitative_label="not satisfied"
chemical_structure=CCOC(=O)CC[C@H](NC(=O)N1CCC(Nc2nc(N)c(C(=O)c3c(F)cccc3F)s2)CC1)C(=O)OCC qualitative_label=satisfied
chemical_structure=Cc1ccccc1NC(=O)N1CCC(Nc2nc(N)c(C(=O)c3c(F)cccc3F)s2)CC1 qualitative_label="not satisfied"
chemical_structure=Nc1nc(NC2CCN(C(=O)Nc3ccccc3Oc3ccccc3)CC2)sc1C(=O)c1c(F)cccc1F qualitative_label="not satisfied"

---

This section presents compounds with their documented pIC50 values.
System: HCT-116 cell line
Experiment: Inhibition of cell growth, tetrazolium salt (MTT) assay
Format: cell-based
Details: Homo sapiens, HCT-116, 120 h, first HCT-116 column (c4); MTT, three to five days; read-out: HCT-116 IC50
pIC50: −log10 of the molar value. Where a name gives a salt, the structure may show the parent alone.
Value Kind: pIC50

compound=COC1CCN(CCCS(=O)(=O)N2CCC(Nc3nc(N)c(C(=O)c4c(F)cccc4F)s3)CC2)CC1 target_entity="HCT-116 cell line" numeric_result=6.57
compound=N#CCCCS(=O)(=O)N1CCC(Nc2nc(N)c(C(=O)c3c(F)cccc3F)s2)CC1 target_entity="HCT-116 cell line" numeric_result=6.05
compound="Nc1nc(NC2CCN(S(=O)(=O)CCSC3CCCC3)CC2)sc1C(=O)c1c(F)cccc1F [Example K38, Trifluoroacetic Acid Salt]" target_entity="HCT-116 cell line" numeric_result=6.34
compound="Nc1nc(NC2CCN(S(=O)(=O)c3ccc(N4CCC(O)C4)nc3)CC2)sc1C(=O)c1c(F)cccc1F (stereo not shown) [Example G11, Trifluoroacetic Acid Salt]" target_entity="HCT-116 cell line" numeric_result=6.38

---

Parameter IC50: see the listing below.
System: HCT-116 cell line
Test: Inhibition of cell growth, tetrazolium salt (MTT) assay
Assay type: cell-based
Details: Homo sapiens, HCT-116, 120 h, read-out: HCT-116 IC50, second HCT-116 column (c5); MTT, three to five days
Value Kind: IC50 (nM)

compound="Nc1nc(NC2CCN(C(=O)Oc3ccc(Cl)cc3)CC2)sc1C(=O)c1c(F)cccc1F [Example C3]" value_kind=IC50 unit_name=nM numeric_result=1200
compound="Nc1nc(NC2CCN(C(=O)Oc3ccc([N+](=O)[O-])cc3)CC2)sc1C(=O)c1c(F)cccc1F [Example C16]" value_kind=IC50 unit_name=nM numeric_result=400

---

Items are presented alongside their recorded IC50.
System: HCT-116 cell line
Assay: Inhibition of cell growth, tetrazolium salt (MTT) assay
Type: cell-based
Settings: Homo sapiens, HCT-116, 120 h, first HCT-116 column (c4); MTT, three to five days; read-out: HCT-116 IC50
Where a name gives a salt, the structure may show the parent alone.
Value Kind: IC50 (nM)

compound="Nc1nc(NC2CCN(S(=O)(=O)c3ccc(CCN4CCC(O)C4)nc3)CC2)sc1C(=O)c1c(F)cccc1F (stereo not drawn) [Example N7, Hydrochloride Salt]" censoring_qualifier== numeric_result=890
compound="CNCCS(=O)(=O)N1CCC(Nc2nc(N)c(C(=O)c3c(F)cccc3F)s2)CC1 [Example K33, Trifluoroacetic Acid Salt]" censoring_qualifier== numeric_result=650
compound=CC(C)S(=O)(=O)N1CCC(Nc2nc(N)c(C(=O)c3c(F)cccc3F)s2)CC1 censoring_qualifier== numeric_result=180
compound="CN(C)CCCOc1ccc(S(=O)(=O)N2CCC(Nc3nc(N)c(C(=O)c4c(F)cccc4F)s3)CC2)cn1 [Example H15, Hydrochloride]" censoring_qualifier== numeric_result=71
compound="Nc1nc(NC2CCN(S(=O)(=O)c3ccc(CCN4C[C@@H]5[C@@H](N)[C@@H]5C4)nc3)CC2)sc1C(=O)c1c(F)cccc1F [Example N10, Hydrochloride Salt]" censoring_qualifier== numeric_result=380
compound=COc1ccc(C(=O)N2CCC(Nc3nc(N)c(C(=O)c4c(F)cccc4F)s3)CC2)cc1 censoring_qualifier== numeric_result=770
compound=CN1CCN=C1c1ccc(S(=O)(=O)N2CCC(Nc3nc(N)c(C(=O)c4c(F)cccc4F)s3)CC2)cc1 censoring_qualifier== numeric_result=1200
compound="CN(C)CCSc1ccc(S(=O)(=O)N2CCC(Nc3nc(N)c(C(=O)c4c(F)cccc4F)s3)CC2)cn1 [Example L1, Dihydrochloride]" censoring_qualifier== numeric_result=78
compound=CC[C@H](NCCS(=O)(=O)N1CCC(Nc2nc(N)c(C(=O)c3c(F)cccc3F)s2)CC1)c1ccccc1 censoring_qualifier== numeric_result=50
compound=COc1cc(C(=O)N2CCC(Nc3nc(N)c(C(=O)c4c(F)cccc4F)s3)CC2)cc(OC)c1C censoring_qualifier== numeric_result=57
compound=Nc1nc(NC2CN(C(c3ccccc3)c3ccccc3)C2)sc1C(=O)c1c(F)cccc1F censoring_qualifier=> numeric_result=5000
compound="Nc1nc(NC2CCN(S(=O)(=O)CCN3CC=CCC3)CC2)sc1C(=O)c1c(F)cccc1F [Example K32, Trifluoroacetic Acid Salt]" censoring_qualifier== numeric_result=190
compound=Cn1cncc1C(=O)N1CCC(Nc2nc(N)c(C(=O)c3c(F)cccc3F)s2)CC1 censoring_qualifier=> numeric_result=5000
compound="Nc1nc(NC2CCN(S(=O)(=O)c3ccc(CN4CCOCC4)cc3)CC2)sc1C(=O)c1c(F)cccc1F [Example J8, Hydrochloride Salt]" censoring_qualifier== numeric_result=98
compound=Cc1nccn1-c1ccc(S(=O)(=O)N2CCC(Nc3nc(N)c(C(=O)c4c(F)cccc4F)s3)CC2)cn1 censoring_qualifier== numeric_result=140
compound="Nc1nc(NC2CCN(S(=O)(=O)c3ccc(CCN4CCC[C@H]4CO)nc3)CC2)sc1C(=O)c1c(F)cccc1F [Example N9, Hydrochloride Salt]" censoring_qualifier== numeric_result=70
compound=COC(=O)c1ccc(C(=O)N2CCC(Nc3nc(N)c(C(=O)c4c(F)cccc4F)s3)CC2)cc1 censoring_qualifier== numeric_result=800
compound=Nc1nc(NC2CCN(S(=O)(=O)CCCN3CCCCC3)CC2)sc1C(=O)c1c(F)cccc1F censoring_qualifier== numeric_result=210
compound="CN(CCO)c1ccc(S(=O)(=O)N2CCC(Nc3nc(N)c(C(=O)c4c(F)cccc4F)s3)CC2)cn1 [Example G10, Trifluoroacetic Acid Salt]" censoring_qualifier== numeric_result=670
compound="CN1CCN(CCc2ccc(S(=O)(=O)N3CCC(Nc4nc(N)c(C(=O)c5c(F)cccc5F)s4)CC3)cn2)CC1 [Example N4, Hydrochloride Salt]" censoring_qualifier== numeric_result=360
compound="C[C@@H]1CN(c2ncc(S(=O)(=O)N3CCC(Nc4nc(N)c(C(=O)c5c(F)cccc5F)s4)CC3)cn2)C[C@H](C)N1 [Example G33, Hydrochloride Salt]" censoring_qualifier== numeric_result=51
compound=CN(CCCS(=O)(=O)N1CCC(Nc2nc(N)c(C(=O)c3c(F)cccc3F)s2)CC1)Cc1ccccc1 censoring_qualifier== numeric_result=60
compound="CN(C)CC(=O)N1CCC(Nc2nc(N)c(C(=O)c3c(F)cccc3F)s2)CC1 [Example D2]" censoring_qualifier== numeric_result=1900
compound=Nc1nc(NC2CCN(S(=O)(=O)CCCN3CCC3)CC2)sc1C(=O)c1c(F)cccc1F censoring_qualifier== numeric_result=810
compound=Cc1cccc(CNCCS(=O)(=O)N2CCC(Nc3nc(N)c(C(=O)c4c(F)cccc4F)s3)CC2)c1 censoring_qualifier== numeric_result=70
compound="Cn1cnc(-c2ccc(S(=O)(=O)N3CCC(Nc4nc(N)c(C(=O)c5c(F)cccc5F)s4)CC3)cc2)c1 [Example F31, Trifluoroacetic Acid Salt]" censoring_qualifier== numeric_result=80
compound=CC(C)(NCCS(=O)(=O)N1CCC(Nc2nc(N)c(C(=O)c3c(F)cccc3F)s2)CC1)c1ccccc1 censoring_qualifier== numeric_result=180

---

Molecular target: human CDK4 and genetically truncated (1-264) cyclin D3 (Homo sapiens, UniProt P11802)
Sequence (P11802 whole entry, the tested form may be a part): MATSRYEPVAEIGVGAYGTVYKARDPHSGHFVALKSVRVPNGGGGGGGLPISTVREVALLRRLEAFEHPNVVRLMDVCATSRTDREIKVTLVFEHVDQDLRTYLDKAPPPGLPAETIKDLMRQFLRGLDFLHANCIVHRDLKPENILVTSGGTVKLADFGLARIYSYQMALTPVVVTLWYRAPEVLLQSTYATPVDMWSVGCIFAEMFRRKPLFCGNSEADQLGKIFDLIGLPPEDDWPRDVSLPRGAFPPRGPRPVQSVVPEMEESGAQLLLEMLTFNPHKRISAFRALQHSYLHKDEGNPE
Sequence (P30281 1-264 partner): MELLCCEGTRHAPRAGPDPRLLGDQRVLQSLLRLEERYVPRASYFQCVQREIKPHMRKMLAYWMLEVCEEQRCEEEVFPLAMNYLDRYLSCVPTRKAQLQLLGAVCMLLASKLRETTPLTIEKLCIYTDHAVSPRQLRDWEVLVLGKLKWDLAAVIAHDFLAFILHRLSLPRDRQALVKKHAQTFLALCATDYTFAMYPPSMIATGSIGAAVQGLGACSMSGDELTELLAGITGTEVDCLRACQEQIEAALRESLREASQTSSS
Assay: Inhibition of CDK4/Cyclin D Retinoblastoma Kinase Activity
Type: biochemical
Conditions: at 0.03 μM
Value Kind: CDK4 % Inhibition at 0.03 μM (%)

chemical_structure=Nc1nc(NC2CCN(C(=O)CSc3ccccc3)CC2)sc1C(=O)c1c(F)cccc1F target_entity="human CDK4 and genetically truncated (1-264) cyclin D3 (Homo sapiens, UniProt P11802)" value_kind="CDK4 % Inhibition at 0.03 μM" numeric_result=65
chemical_structure=Nc1nc(NC2CCN(C(=O)c3sccc3Cl)CC2)sc1C(=O)c1c(F)cccc1F target_entity="human CDK4 and genetically truncated (1-264) cyclin D3 (Homo sapiens, UniProt P11802)" value_kind="CDK4 % Inhibition at 0.03 μM" numeric_result=48
chemical_structure=Nc1nc(NC2CCN(C(=O)c3ccc4c(c3)OCO4)CC2)sc1C(=O)c1c(F)cccc1F target_entity="human CDK4 and genetically truncated (1-264) cyclin D3 (Homo sapiens, UniProt P11802)" value_kind="CDK4 % Inhibition at 0.03 μM" numeric_result=29
chemical_structure=CCN1CCN(C(=O)N2CCC(Nc3nc(N)c(C(=O)c4c(F)cccc4F)s3)CC2)C(=O)C1=O target_entity="human CDK4 and genetically truncated (1-264) cyclin D3 (Homo sapiens, UniProt P11802)" value_kind="CDK4 % Inhibition at 0.03 μM" numeric_result=52

Values compiled from patent US20050101595A1.
